- target_of_assay: T1, human MASP-2cf CCP1-CCP2-SP (human, UniProt O00187 298-686, limits assumed)
- T1 construct: domain: CCP1-CCP2-SP; also called human MASP-2 catalytic fragment
- experiment_notes: SPR, target immobilised
Where no end group is shown, it is not given here.
Reported kon values for the following binders.
Give the quantity in M⁻¹ s⁻¹, number only.

Reference set, count: 5
binder	result_number
EVO21a (designed binder, not fully specified; cysteine pairing not given here, Modified TFPI-D2 Kunitz domain; made as m1) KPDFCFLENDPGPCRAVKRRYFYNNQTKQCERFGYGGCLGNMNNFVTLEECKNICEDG	1.16e+06
EVO22 (designed binder, not fully specified; cysteine pairing not given here, Modified TFPI-D2 Kunitz domain; made as m1) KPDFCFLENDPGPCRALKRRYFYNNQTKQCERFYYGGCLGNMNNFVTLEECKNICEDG	2.3e+06
EVO216 (designed binder, not fully specified; cysteine pairing not given here, Modified TFPI-D2 Kunitz domain; made as m1) KPDFCFLENDPGWCRAAKLRYFYNNQTKQCERFGYGGCLGNMNNFVTLEECKNICEDG	963000
EVO2 (designed binder, not fully specified; ends and bridges not checked, Modified Kunitz domain TFPI-D2 of human TFPI-1; recombinant from E. coli, freed from a His6-S100A4 fusion by TEV protease; also called TFMI-2b) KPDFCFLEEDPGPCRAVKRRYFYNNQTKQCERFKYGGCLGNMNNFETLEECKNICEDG	809000
EVO223 (designed binder, Modified TFPI-D2 Kunitz domain; made as m1) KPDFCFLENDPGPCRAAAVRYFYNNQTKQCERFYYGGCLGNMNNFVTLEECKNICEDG	882000

Please fill in: kon reported for EVO221 (designed binder, not fully specified; cysteine pairing not given here, Modified TFPI-D2 Kunitz domain; made as m1) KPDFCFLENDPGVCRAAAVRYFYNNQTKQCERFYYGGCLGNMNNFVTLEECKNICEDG = 1.03e+06

Recorded result, EVO222 (designed binder, not fully specified; cysteine pairing not given here, Modified TFPI-D2 Kunitz domain; made as m1) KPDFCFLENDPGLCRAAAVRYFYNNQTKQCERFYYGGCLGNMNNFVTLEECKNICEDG , kon: 954000

Looking up EVO2a (designed binder, not fully specified; cysteine pairing not given here, Modified TFPI-D2 Kunitz domain; made as m1) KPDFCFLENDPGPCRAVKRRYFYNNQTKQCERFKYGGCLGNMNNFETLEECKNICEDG , I see its kon listed as 711000

Just so you know, measured kon for EVO212 (designed binder, not fully specified; ends and bridges not checked, Modified TFPI-D2 Kunitz domain; made as m1) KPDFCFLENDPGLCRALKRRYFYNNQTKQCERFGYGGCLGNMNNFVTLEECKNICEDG came out at 1.51e+06
